Test system: HCC1954
Test: Viability assay, BRCA1 WT cell line HCC1954
Assay type: cell-based
Details: Homo sapiens, HCC1954, viability, read-out: HCC1954 rel IC50
recorded.endpoint: IC50

compound=COn1cc(C(F)(F)F)nc1-c1ccc(Cn2c(=N)n(C)c3cnc(-c4ccccc4C(C)C)nc32)cc1 recorded_result="0.25 to 10 µM"
compound="COc1ncnc(C2CC2(F)F)c1-c1ncc2c(n1)n(Cc1ccc(-c3nc(C(F)(F)F)cn3C)cc1)c(=N)n2CC(F)(F)F (stereo not shown)" recorded_result="≥ 10 µM"
compound=C=C(C)c1ccc(F)cc1-c1nc(C)c2c(n1)n(Cc1ccc(-c3nc(C(F)(F)F)cn3C)cc1)c(=N)n2C recorded_result="0.25 to 10 µM"
compound=Cc1ccnc(OC(F)F)c1-c1ncc2c(n1)n(Cc1ccc(-c3nc(C(F)(F)F)cn3C)cc1)c(=N)n2CC(F)(F)F recorded_result="0.25 to 10 µM"
